- targetOrTestSystem: 5-hydroxytryptamine receptor 2C (Homo sapiens, UniProt P28335)
- Sequence (P28335 whole entry): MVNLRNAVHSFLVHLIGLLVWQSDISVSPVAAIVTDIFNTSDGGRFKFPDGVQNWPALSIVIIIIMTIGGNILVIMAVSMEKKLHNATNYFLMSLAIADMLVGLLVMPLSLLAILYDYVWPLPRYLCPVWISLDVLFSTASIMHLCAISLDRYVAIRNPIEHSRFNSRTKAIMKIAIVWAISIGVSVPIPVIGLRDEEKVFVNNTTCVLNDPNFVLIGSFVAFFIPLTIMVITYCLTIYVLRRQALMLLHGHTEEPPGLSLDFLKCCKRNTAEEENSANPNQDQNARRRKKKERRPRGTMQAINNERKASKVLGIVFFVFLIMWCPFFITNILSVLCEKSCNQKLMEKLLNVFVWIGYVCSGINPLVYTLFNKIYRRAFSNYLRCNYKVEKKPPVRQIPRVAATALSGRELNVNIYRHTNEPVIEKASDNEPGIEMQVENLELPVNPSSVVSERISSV
- methodNotes: Binding affinity at 5-HT2C receptor by radioligand displacement assay
- conditionParameters: read-out: Ki
pKi: −log10 of the molar value.
outcomeMeasure: pKi

>>> numericresult("Fc1ccc(SCCCN2CCCN(c3ccc(Cl)cc3)CC2)cc1")
5.60
>>> numericresult("Clc1ccc(N2CCCN(CCCCc3nc4ccccc4s3)CC2)cc1")
5.85
>>> numericresult("Fc1ccc(CCCCN2CCCN(c3ccc(Cl)cc3)CC2)cc1")
5.39
>>> numericresult("O=C(CCCCN1CCCN(c2ccc(Cl)cc2)CC1)c1nc2ccccc2s1")
5.23
